Source listed as ChEMBL document CHEMBL4118161.

Species on record: Mus musculus
run_description: Inhibition of hedgehog signaling pathway in mouse Light2 cells at 100 nM after 48 hrs by Gli-luciferase reporter gene assay relative to control
Assay type: cell-based
Decide by inhibition: equal to or exceeding 30% means YES, less means NO.

Record excerpt, results attached:
                               entry_smiles  answer_label
0  Cc1c(-c2ccncc2)nnc(N2CCC(NC(=O)c3ccc(F)cc3C(F)(F)F)CC2)c1C           YES
1  Cc1c(-c2ccnn2C)nnc(N2CCC(N(C)C(=O)c3ccc(F)cc3C(F)(F)F)CC2)c1C           YES
2  Cc1c(-c2ccnn2C)nnc(N2CCC(NC(=O)NC3CCCC3)CC2)c1C            NO

Q. Assess whether reported inhibition for "Cc1c(-c2ccnn2C)nnc(N2CCN(C(=O)c3ccc(F)cc3C(F)(F)F)CC2)c1C" sits at 30% or higher.
A. NO

Q. Assess whether reported inhibition for "Cc1c(-c2ccnn2C)nnc(N2CCC(NC(=O)c3ccc(Oc4ccccc4F)cc3C(F)(F)F)CC2)c1C" sits at 30% or higher.
A. YES

Q. Assess whether reported inhibition for "Cc1c(-c2ccnn2C)nnc(N2CCC(NC(=O)OC3CCCCC3)CC2)c1C" sits at 30% or higher.
A. NO

Q. Assess whether reported inhibition for "Cc1c(-c2ccnn2C)nnc(N2CCC(NC(=O)Oc3ccccc3)CC2)c1C" sits at 30% or higher.
A. YES

Q. Assess whether reported inhibition for "Cc1c(-c2ccnn2C)nnc(N2CCC(NC(=O)c3c(F)cccc3C(F)(F)F)CC2)c1C" sits at 30% or higher.
A. YES

Q. Assess whether reported inhibition for "Cc1c(-c2ccnn2C)nnc(N2CCC(Nc3ccc(C(C)(C)O)nn3)CC2)c1C" sits at 30% or higher.
A. NO
